Tested on: HOP-62 NSCLC
Experiment: NCI-60 one-dose screen, 48 h (100 = growth as untreated, 0 = no growth, -100 = all killed)
Conditions: 10 µM unless noted
About 83,000 compounds went through this panel and 20% of them were active in at least one assay; those are over-represented in the sample as a whole. Active and inactive are the calls of the source. Rule for the calls: active = growth percent below 10; inactive = the rest.
measured_property: growth

> print(dat)
                                    compound       experimental.result
 1  Cc1nn(-c2ccccc2)c2c1C(c1ccc([N+](=O)[O-])cc1)C(C#N)=C(N)O2 (centres undefined)          94.3% (inactive)
 2  Cc1[nH]c(-c2nc3ccccc3[nH]2)c(C)c1C(=O)N1CCc2sccc2C1          98.2% (inactive)
 3                             CN(C)c1cnccn1          90.3% (inactive)
 4  O=c1ccn(C2OC(F)(CO)C(O)C2F)c(=O)[nH]1 (centres undefined)          82.7% (inactive)
 5  C[C@@H]1C(=O)N(C[C@H](Cc2ccccc2)N(Cc2ccccc2)Cc2ccccc2)[C@]1(Cc1ccccc1)C(=O)OC(C)(C)C          81.6% (inactive)
 6  O=[N+]([O-])c1ccc(-c2cc3c(Nc4ccc(Cl)c(C(F)(F)F)c4)ncnc3s2)cc1          20.8% (inactive)
 7               C=C(C=O)[C@@H]1CC=C(C=O)CC1           -19.7% (active)
 8  C[C@]12CCC(=O)C[C@H]1CC[C@@H]1[C@@H]2CC[C@@]2(C)[C@H]1CC[C@]2(O)C(=O)CO           105% (inactive)
 9  O=C(CC12CC3CC(CC(C3)C1)C2)NCCOCCOCCOCCNC(=O)c1cc2c(o1)C(=O)c1ccccc1C2=O           -49.7% (active)
10            O=C1Nc2ccccc2/C1=N/N=C/c1ccsc1           110% (inactive)
11  CCN(CC)c1ccc(Nc2ccc(CC(=O)c3ccccc3)cc2)cc1          94.6% (inactive)
12      CCC(C)NCc1ccccc1 (centres undefined)          97.6% (inactive)
13  CC(C)c1ccc(NC(=O)Cc2ccc(Nc3ncnc4cc(-c5cnn(CCN(C)C)c5)ccc34)cc2)cc1   -0.67% [30 µM] (active)
14  COc1ccc(-c2nnc(SCC(=O)NC3=NN=C(c4ccccc4)CS3)o2)cc1          86.2% (inactive)
15  Cn1cc(-c2ccc3ncc(-c4ccc(CC(=O)Nc5cc(C(C)(C)C)nn5C)cc4)cc3c2)cn1  17.6% [30 µM] (inactive)
16  O=C(O)CC1Sc2ccccc2NC1=O (centres undefined)          96.3% (inactive)
17  CN(C)S(=O)(=O)n1cnc([C@@H]2[C@@H]3C(=O)OC[C@@H]3C[C@]23N=CN(Cc2ccccc2)C3=O)c1          95.9% (inactive)
18  COc1ccc(/C=C(\C#N)n2nnc3cc(F)c(F)cc32)c(OC)c1OC          82.9% (inactive)
19                       CC(C)(O)c1cccc(F)c1           138% (inactive)
20  C=C1c2c(C)nn(-c3ccc(N)cc3)c2N(C)C23CC1C1(C)c4c(C)nn(-c5ccc(N)cc5)c4N(C)C(C)(CC12)C3 (centres undefined)          88.3% (inactive)
21  Cc1nc2ccc(C(=O)NCc3cc(C(=O)O)c(C)o3)cc2nc1C            77% (inactive)
22  COc1ccc(/C(C)=N/NS(=O)(=O)c2ccc(C)cc2)cc1OC           117% (inactive)
23  Cl.Fc1c[c-]c(-c2ccccn2)c(F)c1.[Pt].c1ccc(P(c2ccccc2)C([PH+](c2ccccc2)c2ccccc2)[PH+](c2ccccc2)c2ccccc2)cc1          25.9% (inactive)
24  CN1C[C@@H](c2ccc(Cl)cc2)[C@]2(NC(=S)N(c3ccc(F)c(Cl)c3)C2=O)[C@@]12C(=O)NC1C=CC(Cl)=C[C@H]12 (some centres undefined)          79.8% (inactive)
25       COc1cc2nc(Nc3ccc(F)cc3)nc(N)c2cc1OC           112% (inactive)
26  N#Cc1c(-c2ccc(C(F)(F)F)cc2)cc(N2CC(O)C2)n2c1nc1ccccc12             7.8% (active)
27  CN1CCN(C(=O)[C@@]2(C)CC[C@]3(C)CC[C@]4(C)C(=CC[C@@H]5[C@@]6(C)C/C(=C/c7ccncc7)C(=O)C(C)(C)[C@@H]6CC[C@]54C)[C@@H]3C2)CC1          68.4% (inactive)
28               Nc1ccc(CCCCc2ccccc2)c(Cl)c1           105% (inactive)
29  C/C(Cc1ccc(Cl)cc1)=C(/c1ccc(Cl)cc1)c1ccc(OCCN(C)C)cc1          99.2% (inactive)
30  CCc1cc(Cc2cc(CC)cc(C(C)(C)C)c2O)c(O)c(C(C)(C)C)c1          34.7% (inactive)
31  Nc1c(C(=O)c2ccc(Cl)s2)sc2nc3c(cc12)CCCC3          97.3% (inactive)
32                    C=C(Cl)COC(=O)C(C)(C)O           105% (inactive)
33  COc1cccc(-c2nc3sccn3c2-c2ccnc(NCCNS(=O)(=O)c3c(Cl)cccc3Cl)c2)c1          88.4% (inactive)
34  O=C1CC(c2ccc3c(c2)OCO3)Nc2cc3c(cc21)OCO3 (centres undefined)          29.7% (inactive)
35  CCn1c(Sc2nnc(Nc3ccccc3)s2)nc2c1c(=O)n(C)c(=O)n2C          93.5% (inactive)
36  CCN(CC)CCNc1ccc(C)c2sc3cc(C)ccc3c(=O)c12          62.9% (inactive)
37  [2H]c1nc(Nc2ncc(F)c(-c3cc(F)c4nc(C)n(C(C)C)c4c3)n2)c([2H])c([2H])c1CN1CCN(C([2H])([2H])C([2H])([2H])[2H])CC1            47% (inactive)
38  Cc1cc2c(F)c(Oc3ncnc(Nc4ccc(N5C[C@@H](C)N[C@@H](C)C5)cc4)c3C#N)cc(F)c2[nH]1          75.8% (inactive)
39  COc1ccc(-c2cn(-c3cccc(C(=O)/C=C/c4cc(OC)c(OC)c(OC)c4)c3)c(=O)[nH]2)cc1           229% (inactive)

----------
Tested on: OVCAR-3 ovarian
Test: NCI-60 one-dose screen, 48 h (100 = growth as untreated, 0 = no growth, -100 = all killed)
Conditions: 10 µM unless noted
Compounds without any hit were thinned out: in the full panel of roughly 83,000, 20% have a hit.
measured_property: growth (%)

> print(dat)
                                   molecule  experimental.result
1  Cc1cc(-c2noc(C(F)(F)F)n2)ccc1N1CCN(c2cc(C(=O)N(C)C)no2)CC1                 83.9
2  CCOC(=O)c1sc2ccc(NCc3nc[nH]c3C)cc2c1NC(=O)c1cc(OC)c(OC)c(OC)c1                   94
3  CC(C)(C)CC(C)(C)Nc1c(-c2ccc(-c3ccccc3)cc2)nc2cnccn12                 90.2
4  CC(/C=N/NC(=O)c1cc(-c2ccco2)[nH]n1)=C\c1ccccc1                  107
5  O=C(/C=C/C12c3ccccc3C(c3ccccc31)C1C(=O)NC(=O)C12)c1ccccc1 (stereo not given)                  2.7

----------
Tested on: SR leukemia
Experiment: NCI-60 one-dose screen, 48 h (100 = growth as untreated, 0 = no growth, -100 = all killed)
Conditions: 10 µM unless noted
The panel holds about 83,000 compounds, 20% with a hit somewhere; the sample as a whole holds those more often.
Where growth equals or exceeds 10%, the correct label is rule met; where it does not, the label is rule not met.

> print(dat)
                                    compound   group.label
 1  O=C(Oc1ccc([N+](=O)[O-])cc1)c1ccc(CBr)cc1      rule met
 2  CC(=O)Nc1cccc(C2=CC(c3ccc(C)cc3)n3ncnc3N2)c1 (stereo not given)      rule met
 3              CSc1ncc(C)c(Nc2ccc(Cl)cc2)n1      rule met
 4  COc1ccc(C(=O)/C=C/C23c4ccccc4C(c4ccccc42)C2C(=O)NC(=O)C23)cc1 (stereo not given)      rule met
 5  COc1cc(NC(=O)c2cc(O)c(CC=C(C)C)c(O)c2)cc2c1O[C@]1(C)CC[C@@H](O)C(C)(C)[C@H]1C2      rule met
 6         Cc1cc(-c2ccccc2)cc(SC#N)[n+]1[O-]  rule not met
 7  CO/C(=C1/NC(=O)C(Cc2ccc(O)c(Br)c2)N(C)C(=O)C(C)NC(=O)CCC/C=C(\C)CCC(C)OC1=O)c1ccccc1 (stereo not given)  rule not met
 8  COc1cc2c(cc1OC)-c1ccc3cc4c(cc3c1N(CCCn1ccnc1)C2)OCO4  rule not met
 9            Clc1ccc(-c2nnc(Cn3ccnc3)o2)cc1      rule met
10                            NC(N)=N/N=C/CO      rule met
